- Test system: K562
- ASSAY: Anticancer activity against human K562 cells assessed as cell growth inhibition by CellTiter-Glo luminescent assay
- Assay type: functional, cell-based
READOUT LABEL: IC50 (µM)
Report only the number, with the unit µM understood.

Example entries and their recorded answers appear below.
COMPOUND STRUCTURE	ASSAY SYSTEM	READOUT UNIT	VALUE MEASURED
CCc1c(C(=O)Nc2cc(/C=C/C(=O)NO)ccc2OC)[nH]c(C)c1C(C)=O	K562	µM	3.4
COc1ccc(S(=O)(=O)n2ccc(/C=C/C(=O)NO)c2)cc1NC(=O)c1[nH]c(C)c2c1CCCCC2=O	K562	µM	2.9
O=C(CCCCCCNC(=O)c1cnc(N(c2ccccc2)c2ccccc2)nc1)NO	K562	µM	6.02
CCc1c(C(=O)Nc2cccc(/C=C/C(=O)NO)c2)[nH]c(C)c1C(C)=O	K562	µM	7.38
Cc1[nH]c(C(=O)Nc2cc(S(=O)(=O)N3CCOCC3)ccc2OCCCCCCCC(=O)NO)c2c1C(=O)CCCC2	K562	µM	5.99

Switching to the query record.
input: What value of IC50 has been recorded for this entry: `Cc1sc2c(c1C)C(c1ccc(Cl)cc1)=N[C@@H](CC(=O)Nc1ccc(O)cc1)c1nnc(C)n1-2`
output: 2.84

Source: ChEMBL document CHEMBL5055650
